Attribution: the supplement of paper PMC11865577

test system: TO-3-N3-2 (biotin conjugate); assay: pull-down binding Z-score (relative to library population); higher = stronger binding; conditions: RNA library: Library-2
Use pull-down binding Z-score to assign classes; range list: category 1 = under -0.3, category 2 = from -0.3 up to 0.06, category 3 = 0.06 and over

Req: Each sequence maps to one class by pull-down binding Z-score. Which class for CAAAACUCCGUACAUUGCUAUUUUGC [hsa-mir-3064] ?
Resp: category 2

Req: Hello team, could you let me know which band the following sequence falls into: GUCCUAUUACGGAU
Resp: category 1

Req: Category lookup for the sequence CAUUUCCUUCAUGAUUAGGAAUACUACUUUGAAAUG [hsa-mir-4712]
Resp: category 2

Req: Just checking, what class would you give GAGCUCAGGAGCUC [hsa-mir-8052] here?
Resp: category 1

Req: Which bin, given its pull-down binding Z-score, does GCUGAGUUGCCAUUCAGC [IAV_invivo_NA_6_Motif_18+IAV_invivo_NA_6_Motif_18] occupy?
Resp: category 2

Req: Using the reported pull-down binding Z-score, which band applies to UCUGCUUUAUUUCAUCAAAGCAGA [hsa-mir-4773-1] ?
Resp: category 1

Req: Form field 'band' for CAUGUGCUGAGUUCGUGCCAUAUG [hsa-mir-654]
Resp: category 2

Req: Dear colleague, I would appreciate it if you could identify the bin for UGAGCUGUGAUGUUGCUCUCGAGCUGG [hsa-mir-769] and reply at your convenience.
Resp: category 3

Req: Which of the defined bands does the recorded pull-down binding Z-score of UCCUCCCAGUGGCUGGUGGA [IAV_invivo_PB2_1_Motif_9+IAV_invivo_PB2_1_Motif_9] sit within?
Resp: category 1

Req: Could you tell me which band AGUGAAAUAAAGGUCCAUCUCCUGCCUAUUUAUUACUUUGCU [hsa-mir-1243] belongs to?
Resp: category 2

Req: Just checking, what class would you give UGGUAUUCUUGCUA here?
Resp: category 1

Req: Hi there! Could you help me figure out the category for CACCACUUAACCGAAAUUAUGUCUUUACUGGUUAUCGUGUAACUAAAAACAGUAAAGUACAAAUAGGAGAGUACACCUUUGAAAAAGGUGACUAUGGUG please?
Resp: category 1

Req: Bin? UAUAAUAUGAGAGUUAUA
Resp: category 1

Req: Lab log: GGCGCGCGAGGCUCCAGGCUCC [hsa-mir-3197] — assign pull-down binding Z-score category
Resp: category 3

Req: Would you mind sorting CCGACUCUGAGUAUGAUAGAAGUC [hsa-mir-148a] into the appropriate category?
Resp: category 3

Req: Which pull-down binding Z-score band matches GCUCCCAACCAACCACUUCCACAUGUUUUGCUGGU [hsa-mir-4451] ?
Resp: category 3

Req: Hey, which category is CUGUAUGUCCUAACAGUGCUUGUAG [hsa-mir-4794] in, do you know?
Resp: category 2

Req: Textbook exercise: identify the category of the sequence given here, AACUGUGCGGCCGGCCACACCGUCACACCGGGU [hsa-mir-8083] , according to its measured value.
Resp: category 3

Req: Class label required: GGCUGGUGGCACUACUGAAAUGCUAGCGAAAGCUUUGAGAAAAGUGCCAACAGAC
Resp: category 1

Req: Tag the class for GGUGUUUAUUACC
Resp: category 1

Req: Category of GAUUUUUUAGAUUCUAAAGAAAC [hsa-mir-1255a] :
Resp: category 1

Req: Dear colleague, I would appreciate it if you could identify the bin for UUCAGAGUCAAUAUAAUUUUCUAG [hsa-mir-29a] and reply at your convenience.
Resp: category 3

----------
system: TO-3-N3-2 (biotin conjugate); test: pull-down binding Z-score (relative to library population); higher = stronger binding; details: RNA library: Library-2
If the reported pull-down binding Z-score equals or exceeds 0.1, assign y. If not, assign n.

Req: Does the reported pull-down binding Z-score for GAGUUUUUAGUGCAGUUGGUAACAUCUGUUACACACCAUCAAAACUU fall at or above the 0.1 mark?
Resp: n

Req: Hi team, for GAGGCCUCUUGCCAUGGCCUCC [hsa-mir-7113] , is the recorded pull-down binding Z-score at or above 0.1?
Resp: n

Req: Check the entry ACCUUGAAGGAAAACAGGGU : does pull-down binding Z-score equal or exceed 0.1?
Resp: y

Req: Check the entry CACACACAAUCACCAUGUG [hsa-mir-3118-1] : does pull-down binding Z-score equal or exceed 0.1?
Resp: n

Req: Does the sequence ACCAGUUAACUGGU [SHAPE_invitro_SARS-CoV-2_Motif_121] have recorded pull-down binding Z-score that is 0.1 or more?
Resp: n

Req: Is it the case that CCCAGAGAAAGCCUGAACGUUGGG [hsa-mir-585] has pull-down binding Z-score reaching or exceeding 0.1?
Resp: n

Req: Does the sequence GAUCUCUUGUAGAUC have recorded pull-down binding Z-score that is 0.1 or more?
Resp: n

Req: Check this sequence for pull-down binding Z-score at or above 0.1: ACAAUUAUGAAAGAAAAGAAAUUGU [hsa-mir-3611]
Resp: y

Req: API: above_or_equal(metric=pull-down binding Z-score, cutoff=0.1) for item CGUGCUCAGCUUGGCACCCAAGUUCUGC [hsa-mir-7704]
Resp: n

Req: Determine whether this sequence has pull-down binding Z-score no lower than 0.1: CCUUUCCCCUCAGACCAAGG [hsa-mir-3131]
Resp: n

Req: Decide: is the reported value of pull-down binding Z-score for GGGGCUGAGAAACCAAAGUUUC [IAV_invivo_PA_3_Motif_3+IAV_invivo_PA_3_Motif_3] equal to or greater than 0.1?
Resp: y

Req: hey, is pull-down binding Z-score for this one >= 0.1? ACUAGAUUUGAAUCCAGACCUUUAGU [hsa-mir-5584]
Resp: y

Req: Could you tell me if the measured pull-down binding Z-score of CUGGGAGGUGUGAUAUCGUGGUUCCUGG [hsa-mir-3689c] reaches 0.1 or more?
Resp: y

Req: Assess whether reported pull-down binding Z-score for CCCGGAAAUAGCAGGAAGACCCAAAGUAAGAGAUCAAGCUGGG [IAV_invivo_HA_4_Motif_10+IAV_invivo_HA_4_Motif_10] sits at 0.1 or higher.
Resp: y

Req: # bool: pull-down binding Z-score of UGAUGUCACAGAUGUGACUCA >= 0.1
Resp: n

Req: Does GCCAGCAACCUGAUUACCCCUCUUUGGC [hsa-mir-6851] have a reported pull-down binding Z-score of at least 0.1?
Resp: n

Req: For this sequence, is measured pull-down binding Z-score 0.1 or higher? GUUACUAAUCUAACUAAUUGUAAC [hsa-mir-582]
Resp: n

Req: Test whether the sequence UUUUGCAAUUUUUUAAUGACAAAA [hsa-mir-548t] records pull-down binding Z-score of 0.1 or higher.
Resp: n

Req: Entry CCCACGGCCCUUGUCAGUGUG [hsa-mir-3190] : is its pull-down binding Z-score no less than 0.1?
Resp: n

Req: Can GUUUAAGGAAGGUGUAGAGUUUCUUAGAGAC be said to have pull-down binding Z-score at or above 0.1?
Resp: y

----------
tested on: G-clamp-N3 (biotin conjugate); experiment: pull-down binding Z-score (relative to library population); higher = stronger binding; conditions: RNA library: Library-1 (pre-miRNA loops + repeats)
Recorded Metric: pull-down binding Z-score
# answer = number (no unit)

Req: Requested read-out: pull-down binding Z-score. Entry: CGGAUCUCGAGGGUGCUUAUUGUUCGGUCCG [hsa-mir-615]
Resp: 1.11

Req: Consider the sequence shown here: CCUGGAGAGCUGCUGUCUCCAG [hsa-mir-6746] What is its recorded pull-down binding Z-score?
Resp: 1.35

Req: Requested read-out: pull-down binding Z-score. Entry: CUCUCUGUUGCUCUGAAGGAG [hsa-mir-346]
Resp: 1.39

Req: I am curious: what pull-down binding Z-score value has been reported for UUUGUGUAAGGAAUUUUGUGGUCACAAA [hsa-mir-10a] ?
Resp: 1.29

Req: I would be grateful if you could share the reported pull-down binding Z-score for AAGCUGUGUGUGUCCAGC [hsa-mir-4732] .
Resp: -0.258

Req: What does the record list as pull-down binding Z-score for CACUACAAGAAGAAUGUAGUUGUG [hsa-mir-19a] ?
Resp: 1.3
